Test: HPLC elution on Nucleosil-lecithin (immobilized artificial membrane) column
Type: physicochemical
Design: unit not given beside the values
Details: Nucleosil-lecithin column; mobile phase isotonic buffered saline at 1.0 ml/min; detection at 260 nm
Each item that follows carries a reported Elution times.
Number only, no unit.

Solved entries (count: 3):
Nc1ncnc2c1ncn2[C@H]1C[C@H](O)[C@@H](CO)O1: 2.090
O=c1ccn([C@H]2C[C@H](O)[C@@H](CO)O2)c(=O)[nH]1: 1.465
Nc1ccn([C@H]2C[C@H](O)[C@@H](CO)O2)c(=O)n1: 1.175

// next item, Elution times requested
Using the record for Nc1nc2c(ncn2[C@H]2C[C@H](O)[C@@H](CO)O2)c(=O)[nH]1 , report its Elution times.
1.730
